Test system: Staphylococcus aureus
protocol: Antibacterial activity against methicillin-resistant Staphylococcus aureus 110834 clinical isolate after 20 to 24 hrs by two-fold microdilution method
Assay type: functional
molecules and their reported MIC
// units = µg/mL; emit number, no label

compoundStructureString: CN(C)CCCCCOC(=O)c1c2c(n3cc(Br)ccc13)C(=O)c1ncccc1C2=O
reportedValue: 0.5

Here is another molecule to look at.
Entry O=C1c2cccnc2C(=O)c2c1c(C(=O)OCCCCN1CCOCC1)c1ccc(Br)cn21 under Staphylococcus aureus had MIC of 0.25

---

Reported MIC values for a set of compounds
Tested on: Staphylococcus aureus
protocol: Antibacterial activity against methicillin-resistant Staphylococcus aureus 10281-2 clinical isolate after 20 to 24 hrs by two-fold microdilution method
Format: functional

Observe how each entry below is paired with its result.
compoundStructureString: O=C1c2cccnc2C(=O)c2c1c(C(=O)OCCCCCCN1CCOCC1)c1ccc(Br)cn21
MIC: ≤ 7.8 ng/mL

compoundStructureString: O=C1c2cccnc2C(=O)c2c1c(C(=O)OCCCCCN1CCOCC1)c1ccc(Br)cn21
MIC: ≤ 7.8 ng/mL

MIC measured on CN1CCN(CCCCCCOC(=O)c2c3c(n4cc(Br)ccc24)C(=O)c2ncccc2C3=O)CC1 = ≤ 7.8 ng/mL
